test: Cmax in Swiss mouse lung at 3 mg/kg, iv measured upto 24 hrs by LC-MS/MS analysis; format: ADME, organism-based; design: time < 24 hrs, dose 3 mg/kg, route iv

smiles_data | Cmax (ng/mL)
CO[C@@H](CNC(=O)[C@H](NC(=O)[C@H](O)[C@H](C)O)[C@H](O)c1cncn1C)[C@H](O)[C@H](O)C(=O)N(C)[C@@H](Cc1ccccc1)C(=O)NCC(=O)N[C@H](C(=O)N[C@@H](CO)C(=O)N[C@H](C(=O)N[C@H](C(=O)N[C@@H](CC(=O)O)C(=O)N1CCC[C@H]1C(=O)NCc1cc(=O)c(O)cn1O)C(C)(C)C)C(C)(C)O)C(C)(C)O | 2420

---

experiment: Metabolic stability in mouse lung assessed as parent compound remaining measured after 4 hrs by UPLC-MS analysis; format: ADME, tissue-based; conditions: mouse lung, read-out: Stability

smiles_data | remaining at 4 h
CO[C@@H](CNC(=O)[C@H](NC(=O)[C@H](O)[C@H](C)O)[C@H](O)c1cncn1C)[C@H](O)[C@H](O)C(=O)N(C)[C@@H](Cc1ccccc1)C(=O)NCC(=O)N[C@H](C(=O)N[C@@H](CO)C(=O)N[C@H](C(=O)N[C@H](C(=O)N[C@@H](CO)C(=O)NCc1cc(=O)c(O)cn1O)C(C)(C)C)C(C)(C)O)C(C)(C)O | 73%
CO[C@@H](CNC(=O)[C@H](NC(=O)[C@H](O)[C@H](C)O)[C@H](O)c1cncn1C)[C@H](O)[C@H](O)C(=O)N(C)[C@@H](Cc1ccc(F)cc1)C(=O)NCC(=O)N[C@H](C(=O)N[C@@H](CO)C(=O)N[C@H](C(=O)N[C@H](C(=O)N[C@@H](CCC(=O)NCc1cc(=O)c(O)cn1O)C(=O)O)C(C)(C)C)C(C)(C)O)C(C)(C)O | 86%
CO[C@@H](CNC(=O)[C@H](NC(=O)[C@H](O)[C@H](C)O)[C@H](O)c1cncn1C)[C@H](O)[C@H](O)C(=O)N(C)[C@@H](Cc1ccc(F)cc1)C(=O)NCC(=O)N[C@H](C(=O)N[C@@H](CO)C(=O)N[C@H](C(=O)N[C@H](C(=O)N[C@@H](CO)C(=O)N[C@@H](CN)C(=O)NCc1cc(=O)c(O)cn1O)C(C)(C)C)C(C)(C)O)C(C)(C)O | 107%
CO[C@@H](CNC(=O)[C@H](NC(=O)[C@H](O)[C@H](C)O)[C@H](O)c1cncn1C)[C@H](O)[C@H](O)C(=O)N(C)[C@@H](Cc1ccc(F)cc1)C(=O)NCC(=O)N[C@H](C(=O)N[C@@H](CO)C(=O)N[C@H](C(=O)N[C@H](C(=O)N[C@@H](CO)C(=O)NCc1cc(=O)c(O)cn1O)C(C)(C)C)C(C)(C)O)C(C)(C)O | 54%
CO[C@@H](CNC(=O)[C@H](NC(=O)[C@H](O)[C@H](C)O)[C@H](O)c1cncn1C)[C@H](O)[C@H](O)C(=O)N(C)[C@@H](Cc1ccccc1)C(=O)NCC(=O)N[C@H](C(=O)N[C@@H](CO)C(=O)N[C@H](C(=O)N[C@H](C(=O)N[C@@H](CO)C(=O)N[C@H](CCC(=O)NCc1cc(=O)c(O)cn1O)C(=O)O)C(C)(C)C)C(C)(C)O)C(C)(C)O | 77%
CO[C@@H](CNC(=O)[C@H](NC(=O)[C@H](O)[C@H](C)O)[C@H](O)c1cncn1C)[C@H](O)[C@H](O)C(=O)N(C)[C@@H](Cc1ccc(F)cc1)C(=O)NCC(=O)N[C@H](C(=O)N[C@@H](CO)C(=O)N[C@H](C(=O)N[C@H](C(=O)N[C@@H](CO)C(=O)NCc1cccc(O)c1O)C(C)(C)C)C(C)(C)O)C(C)(C)O | 0%
